study_system: ATP-dependent translocase ABCB1 (Homo sapiens)
Sequence (P08183 whole entry): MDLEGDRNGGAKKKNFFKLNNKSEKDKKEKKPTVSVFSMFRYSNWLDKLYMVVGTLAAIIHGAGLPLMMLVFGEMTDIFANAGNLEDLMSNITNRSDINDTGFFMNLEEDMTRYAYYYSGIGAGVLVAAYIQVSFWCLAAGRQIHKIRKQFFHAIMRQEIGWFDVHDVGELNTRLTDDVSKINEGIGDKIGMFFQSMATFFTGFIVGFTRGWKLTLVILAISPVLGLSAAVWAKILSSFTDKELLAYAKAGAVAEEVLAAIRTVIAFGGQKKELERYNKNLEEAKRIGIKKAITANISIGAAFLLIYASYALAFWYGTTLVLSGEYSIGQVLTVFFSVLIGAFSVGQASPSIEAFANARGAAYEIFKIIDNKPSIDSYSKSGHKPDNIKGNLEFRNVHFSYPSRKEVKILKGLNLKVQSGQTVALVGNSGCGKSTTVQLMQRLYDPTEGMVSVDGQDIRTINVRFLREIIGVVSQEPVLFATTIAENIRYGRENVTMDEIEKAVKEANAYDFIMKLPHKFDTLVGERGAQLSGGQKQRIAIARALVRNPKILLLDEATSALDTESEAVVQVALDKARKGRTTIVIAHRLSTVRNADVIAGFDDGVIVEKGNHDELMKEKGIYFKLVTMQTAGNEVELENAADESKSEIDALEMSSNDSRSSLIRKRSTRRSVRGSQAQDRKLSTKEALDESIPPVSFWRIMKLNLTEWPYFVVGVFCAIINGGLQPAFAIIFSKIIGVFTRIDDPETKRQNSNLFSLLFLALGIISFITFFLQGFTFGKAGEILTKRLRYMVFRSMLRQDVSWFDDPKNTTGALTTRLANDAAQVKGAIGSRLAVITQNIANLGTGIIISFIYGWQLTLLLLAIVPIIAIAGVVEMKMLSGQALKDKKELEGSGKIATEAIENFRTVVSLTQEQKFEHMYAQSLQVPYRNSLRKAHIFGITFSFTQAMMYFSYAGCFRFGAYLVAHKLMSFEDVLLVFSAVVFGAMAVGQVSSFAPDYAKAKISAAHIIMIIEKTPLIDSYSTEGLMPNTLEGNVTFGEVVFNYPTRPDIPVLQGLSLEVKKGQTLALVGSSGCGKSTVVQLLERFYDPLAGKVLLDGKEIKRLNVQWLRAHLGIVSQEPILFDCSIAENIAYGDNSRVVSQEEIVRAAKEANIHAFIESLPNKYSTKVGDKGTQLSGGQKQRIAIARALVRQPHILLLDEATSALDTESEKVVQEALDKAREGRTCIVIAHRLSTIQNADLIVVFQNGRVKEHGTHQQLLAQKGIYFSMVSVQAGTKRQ
experiment_description: Inhibition of P-glycoprotein in human drug-resistant K562/ADR cells assessed as reduction in P-gp mediated rhodamine 123 efflux by spectrofluorometry
# Ki per record follows

Some entries whose results are on file:
CCN(CC)CCCn1c(=O)/c(=C/c2ccc3c(c2)OCO3)s/c1=C1/C(=O)Nc2ccc(F)cc21 :: > 2230 nM
CCN(CC)CCCn1c(=O)/c(=C/c2ccc3c(c2)OCO3)s/c1=C1\C(=O)Nc2ccc(F)cc21 :: > 2230 nM

Please turn your attention to the following entry.
Give the measured Ki for CN(C)CCn1c(=O)/c(=C/c2ccc(O)cc2)s/c1=C1\C(=O)Nc2ccccc21 > 2230 nM
